- ASSAY_PROTOCOL: Plasma concentrations and urinary excretion in healthy human volunteers after oral intake
- EXPERIMENTAL_SETUP: human, in vivo, po, 1.23 mmol
PROPERTY_LABEL: Cmax

Exam item: Sample CC(=O)N[C@@H](CS)C(=O)O [N-acetyl-L-cysteine, reference compound] — what was its Cmax?
Marked response: < 1000 nM

====

concentration listing for selected compounds.
- ASSAY_PROTOCOL: Plasma thiol concentrations after intraintestinal injection in anaesthetized rats
- EXPERIMENTAL_SETUP: rat, in vivo
Note: unit µM is implicit; provide only the numeric part.

CC(C)(C)C(=O)N[C@@H](CS)C(=O)O
11.8

Next, consider the following compound.
Exam item: Which concentration is reported for this compound? CC(C)C(=O)N[C@@H](CS)C(=O)O
Marked response: 13

The origin of these recorded values is patent US5350768A.
